Cited source: the supplement of paper PMC10567573

B1: CRYL1 (parent)
chain: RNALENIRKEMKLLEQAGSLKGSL

- Variants of: B1
- experimentSummary: protein stability index of a GFP-peptide fusion (GPS, HEK-293T) (PSI 1-6); higher = more stable;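 note: lentivirally expressed fusions sorted by FACS into six bins by GFP to DsRed ratio, PSI derived from sequencing read proportions per bin multiplied by bin number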
- runConditions: c terminus: a fixed tail appended
readoutKind: protein stability index
One number for each entry.

sequence: RNALENIRKEMKLLEQAGSLKGSS [L24S]
measurement: 3.95
--
sequence: RNALENIRKEMKLLEQAGSLKGSY [L24Y]
measurement: 3.08
--
sequence: RNALENIRKEYKLLEQAGSLKGSL [M11Y]
measurement: 2.92

Working through the 4 variants below one at a time, give protein stability index for each.
1. RNALENIRKEMKLLGQAGSLKGSL [E15G]
2. RNPLENIRKEMKLLEQAGSLKGSL [A3P]
3. RNELENIRKEMKLLEQAGSLKGSL [A3E]
4. RNALEKIRKEMKLLEQAGSLKGSL [N6K]

[3.05, 4.1, 2.94, 3.06]
